- System: TO-N3-2 (biotin conjugate)
- assay_notes: pull-down binding Z-score (relative to library population); higher = stronger binding
- reported_conditions: RNA library: Library-2
# binarize pull-down binding Z-score: threshold 0.2 inclusive, high side 1, low side -1

Before answering, review these 5 worked examples.
>  <record_sequence>
GCAGAUUCUCUCUCUC [hsa-mir-4279]

>  <group_label>
1

$$$$
>  <record_sequence>
GGGCUAGAUUCCC [DMSMaPseq_invitro_SARS-CoV-2_Motif_228]

>  <group_label>
-1

$$$$
>  <record_sequence>
UCUGGAGUAAAAGACUGUGUUGUAUUACACAGUUACUUCACUUCAGA

>  <group_label>
-1

$$$$
>  <record_sequence>
GGACAUCCUUCCAUAGUAAAUAAGCGGUGCC [hsa-mir-8064]

>  <group_label>
1

$$$$
>  <record_sequence>
CCGCCUUUGUGCUGUCCUUGGAGGGAGG [hsa-mir-1910]

>  <group_label>
1

$$$$

From here, focus on the item given below.
Task: Check if pull-down binding Z-score >= 0.2 (inclusive). Item: GCGCUGCCAGAAACUGGCUCAGCGC [bulge-UC]
Output: -1
